Biological target: Glucagon-like peptide 1 receptor (Homo sapiens, UniProt P43220)
Sequence (P43220 whole entry): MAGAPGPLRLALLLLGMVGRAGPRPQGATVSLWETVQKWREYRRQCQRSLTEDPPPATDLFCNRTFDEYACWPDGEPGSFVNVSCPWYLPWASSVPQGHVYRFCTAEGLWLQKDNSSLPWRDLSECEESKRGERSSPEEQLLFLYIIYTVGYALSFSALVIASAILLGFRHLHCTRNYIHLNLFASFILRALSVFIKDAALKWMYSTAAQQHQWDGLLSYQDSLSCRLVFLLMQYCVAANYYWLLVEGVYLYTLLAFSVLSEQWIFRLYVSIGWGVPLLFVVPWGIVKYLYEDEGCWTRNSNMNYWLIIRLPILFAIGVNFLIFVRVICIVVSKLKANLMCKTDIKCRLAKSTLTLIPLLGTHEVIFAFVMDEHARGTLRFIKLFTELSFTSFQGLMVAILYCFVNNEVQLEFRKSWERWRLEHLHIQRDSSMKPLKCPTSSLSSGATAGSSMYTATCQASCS
Test: Agonist activity at human GLP-1R expressed in CHO cells assessed as cAMP accumulation incubated for 30 mins relative to GLP1
Assay type: functional, cell-based
Non-standard residues stand in square brackets, D forms with d. Residues, ends and D or L forms follow the SMILES beside them. Bip(2'-Et-4'-OMe) = CCc1cc(OC)ccc1-c1ccc(C[C@H](N)C(=O)O)cc1; Bip(2'-Me) = Cc1ccccc1-c1ccc(C[C@H](N)C(=O)O)cc1; αMePhe(2,6-F2) = C[C@](N)(Cc1c(F)cccc1F)C(=O)O; Aib = CC(C)(N)C(=O)O
experimental.endpoint: Activity

Some compounds with recorded Activity:
# compound, reported.result
records = [
    ("CCc1cc(OC)ccc1-c1ccc(C[C@H](NC(=O)[C@H](CC(=O)O)NC(=O)[C@H](CO)NC(=O)[C@@H](NC(=O)[C@](C)(Cc2ccccc2F)NC(=O)[C@@H]2CCSSCC[C@@H](NC(=O)[C@@H](N)Cc3cnc[nH]3)C(=O)N[C@@H](CCC(=O)O)C(=O)NCC(=O)N2)[C@@H](C)O)C(=O)N[C@@H](CCCc2ccccc2)C(N)=O)cc1", "> 85%"),
    ("CCc1cc(OC)ccc1-c1ccc(C[C@H](NC(=O)[C@H](CC(=O)O)NC(=O)[C@H](CO)NC(=O)[C@@H](NC(=O)[C@](C)(Cc2ccccc2F)NC(=O)[C@@H]2CSSC[C@@H](NC(=O)[C@@H](N)Cc3cnc[nH]3)C(=O)N[C@@H](CCC(=O)O)C(=O)NCC(=O)N2)[C@@H](C)O)C(=O)N[C@@H](CCCc2ccccc2)C(N)=O)cc1", "> 85%"),
]

Input line: Give the reported Activity for CCc1cc(OC)ccc1-c1ccc(C[C@H](NC(=O)[C@H](CC(=O)O)NC(=O)[C@H](CO)NC(=O)[C@@H](NC(=O)[C@](C)(Cc2c(F)cccc2F)NC(=O)[C@@H](NC(=O)CNC(=O)[C@H](CCC(=O)O)NC(=O)C(C)(C)NC(=O)[C@@H](N)Cc2cnc[nH]2)[C@@H](C)O)[C@@H](C)O)C(=O)N[C@@H](Cc2ccc(-c3ccccc3C)cc2)C(N)=O)cc1 (H-H[Aib]EGT[αMePhe(2,6-F2)]TSD[Bip(2'-Et-4'-OMe)][Bip(2'-Me)]-NH2) (system: Glucagon-like peptide 1 receptor (Homo sapiens, UniProt P43220)).
Output line: > 85%

----------
Biological target: Glucagon-like peptide 1 receptor (Homo sapiens)
Assay: Agonist activity at human GLP-1R expressed in CHO cells assessed as cAMP accumulation incubated for 30 mins
Non-standard residues stand in square brackets, D forms with d. Residues, ends and D or L forms follow the SMILES beside them. Bip(2'-Et-4'-OMe) = CCc1cc(OC)ccc1-c1ccc(C[C@H](N)C(=O)O)cc1; αMePhe(2-F) = C[C@](N)(Cc1ccccc1F)C(=O)O; hhPhe = N[C@@H](CCCc1ccccc1)C(=O)O; Aib = CC(C)(N)C(=O)O
Measured EC50, listed per entry.
Express it in nM; write the number only.

Some compounds with recorded EC50:
# compound, u, EC50
rows = [
    ("CCc1cc(OC)ccc1-c1ccc(C[C@H](NC(=O)[C@H](CC(=O)O)NC(=O)[C@H](CO)NC(=O)[C@@H](NC(=O)[C@](C)(Cc2ccccc2F)NC(=O)[C@H]2CCSSCC[C@H](NC(=O)[C@@H](N)Cc3cnc[nH]3)C(=O)N[C@@H](CCC(=O)O)C(=O)NCC(=O)N2)[C@@H](C)O)C(=O)N[C@@H](CCCc2ccccc2)C(N)=O)cc1", "nM", 1.8),
    ("CCc1cc(OC)ccc1-c1ccc(C[C@H](NC(=O)[C@H](CC(=O)O)NC(=O)[C@H](CO)NC(=O)[C@@H](NC(=O)[C@](C)(Cc2ccccc2F)NC(=O)[C@@H](NC(=O)CNC(=O)[C@H](CCC(=O)O)NC(=O)C(C)(C)NC(=O)[C@@H](N)Cc2cnc[nH]2)[C@@H](C)O)[C@@H](C)O)C(=O)N[C@@H](CCCc2ccccc2)C(N)=O)cc1 (H-H[Aib]EGT[αMePhe(2-F)]TSD[Bip(2'-Et-4'-OMe)][hhPhe]-NH2)", "nM", 0.12),
]

Consider the record given below.
Input line: # EC50 lookup, item CCc1cc(OC)ccc1-c1ccc(C[C@H](NC(=O)[C@H](CC(=O)O)NC(=O)[C@H](CO)NC(=O)[C@@H](NC(=O)[C@](C)(Cc2ccccc2F)NC(=O)[C@@H]2CSSC[C@H](NC(=O)[C@@H](N)Cc3cnc[nH]3)C(=O)N[C@@H](CCC(=O)O)C(=O)NCC(=O)N2)[C@@H](C)O)C(=O)N[C@@H](CCCc2ccccc2)C(N)=O)cc1
Output line: 670
